Target desc: falcipain-3 (Plasmodium falciparum)
Construct: made in house
Sequence (Q8IIL0 243-492): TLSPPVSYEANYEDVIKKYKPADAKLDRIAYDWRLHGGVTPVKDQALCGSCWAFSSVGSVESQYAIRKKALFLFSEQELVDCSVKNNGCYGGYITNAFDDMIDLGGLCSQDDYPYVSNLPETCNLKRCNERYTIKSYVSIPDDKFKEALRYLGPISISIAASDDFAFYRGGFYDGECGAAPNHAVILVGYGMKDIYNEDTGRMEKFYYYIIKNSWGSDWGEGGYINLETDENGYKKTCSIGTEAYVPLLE
Assay comment: Falcipain-3 protease inhibition assay (Z-Leu-Arg-AMC)
Format: biochemical
Condition description: read-out: IC50 falcipain-3
Please respond with reported pIC50 for every item in the list.
Answers are plain numbers, as −log10 of the molar value.

Example molecules with recorded pIC50:
# Molecule, Property name, Assay result
data = [
    ("CC(C)CC(NC(c1ccc(-c2ccc(S(C)(=O)=O)cc2)cc1)c1nccs1)C(=O)NC1(C#N)CC1 (stereo not drawn)", "pIC50", 8.62),
    ("CC(C)CC(NC(=O)N1CCOCC1)C(=O)NC(C=CS(=O)(=O)c1ccccc1)CCc1ccc(O)cc1 (stereo not drawn) [Compound 18a]", "pIC50", 7.40),
    ("CCCCC(NC(=O)C(CC(C)C)NC(C)=O)C(=O)c1nc2ccccc2o1 (stereo not drawn) [Compound 19c]", "pIC50", 7.77),
]

# batch: return pIC50 for each of the 3 molecules below
1. N#CC1(NC(=O)C(CC2CCCCC2)NC(=O)c2cccc(-c3cccc(S(N)(=O)=O)c3)c2)CCS(=O)(=O)CC1 (stereo not drawn)
2. CCCCC(NC(=O)C(Cc1ccccc1)NC(=O)N1CCOCC1)C(=O)c1nc2ccccc2o1 (stereo not drawn) [Compound 19b]
3. CCCCC(NC(=O)C(CC(C)C)NC(=O)N1CCOCC1)C(=O)c1nc2ccccc2o1 (stereo not drawn) [Compound 19a]

OUTPUT:
7.96
8.31
8.08
